system: NCI/ADR-RES ovarian; assay: NCI tumour cell line growth inhibition, 48 h
# TGI listing for each entry below
measured-quantity: TGI

compound | system-name | measured-quantity | result
COC(=O)C1C(=O)N(C)C(=O)N2CCCC12 (stereo not given) | NCI/ADR-RES ovarian | TGI | > 100 µM
CCCSc1ccc2[nH]c(N3C(=O)/C(=C/c4ccccc4)N=C3c3ccccc3)cc2c1 | NCI/ADR-RES ovarian | TGI | > 50 µM
C=C(C)CC1(O[Si](C)(C)C)C(=O)C(OCC)=C1OCC (stereo not given) | NCI/ADR-RES ovarian | TGI | > 100 µM
CC(C)=CCNc1nc(Cl)nc2nc[nH]c12 | NCI/ADR-RES ovarian | TGI | > 100 µM
C=C(C)[C@H]1C2=CC(C)=C(O2)[C@@H](O[C@@H]2c3oc(cc3C)[C@H](C(=C)C)[C@H]3C=C(CC[C@H]2C(=C)C)C(=O)O3)[C@H](C(=C)C)CCC2=C[C@H]1OC2=O | NCI/ADR-RES ovarian | TGI | > 100 µM

====

tested on: NCI-H226 lung; test: NCI tumour cell line growth inhibition, 48 h
measured-quantity: TGI

molecule | measured-quantity | result
COc1cnc2c(c1)C(=O)c1c-2n(CCCNCCO)c(=O)c2ccncc12 | TGI | 3.65 µM
Cc1ccc(N=Nc2c(O)ccc3ccccc23)cc1 | TGI | > 100 µM
COC(=O)C1C(=O)N(C)C(=O)N2CCCC12 (stereo not given) | TGI | > 100 µM
CCOC(=O)c1cc(C)nc2c1c(=O)n(-c1ccccc1)c(=O)n2CCCCN1CCN(c2ccccc2)CC1 | TGI | > 100 µM
N#Cc1cc2c(n(C3OC(CO)C(O)C(O)C3O)c1=S)CCCCCC2 (stereo not given) | TGI | > 100 µM
COc1ccc(C(=O)CC(c2ccccc2)[C@H]2C(c3ccc(OC)cc3)=Nc3c(nc(SC)n(C)c3=O)NC2c2ccccc2)cc1 (stereo not given in full) | TGI | > 100 µM
O=C(Nc1ccccc1C(=O)NCc1ccccc1)/C(=C/c1ccccc1)NC(=O)c1ccccc1 | TGI | > 100 µM
COc1cccc(C=O)c1[O-].[O]=[U](=[O])([OH2+])[OH2+] | TGI | > 100 µM
COC(=O)C1C(O)C(C)C(O)C(C)C=C(C)C2=C3C(=C(C)C(=O)c4c(O)c(c(C)c(OC(C)=O)c43)NC(=O)C(C)=C/C=C\C(C)C(O)C(C)C1O)OCO2 (stereo not given) | TGI | > 100 µM
C/C(=N\Nc1nc2ccccc2n1C)c1cc2ccccc2cn1 | TGI | 2.22 µM
CC1=Cc2ccc(C)cc2C(=O)C1=O | TGI | > 100 µM
CCOP(=O)(OCC)/C(=C/c1cccs1)CC(C)=O | TGI | > 100 µM
CN(C)CCSS(=O)(=O)O | TGI | > 100 µM
COc1ccc(C(=O)NNc2nc(Cl)nc(N3CCN(C(c4ccccc4)c4ccccc4)CC3)n2)cc1 | TGI | 45.1 µM
O=C([O][Sn]([O]C(=O)c1ccccn1)([c]1ccccc1)[c]1ccccc1)c1ccccn1 | TGI | 29.6 µM
O=C1CCC(N2C(=O)c3ccccc3C2=O)C(=O)N1 (stereo not given) | TGI | > 100 µM
COC(=O)C1=C(C(=O)OC)C2(C)C=CC1O2 (stereo not given) | TGI | 39.9 µM
C=CCP(=O)(CC=C)C(Cl)Cl | TGI | > 100 µM
O=C(Nn1c(-c2ccccc2)nc2ccccc2c1=O)c1ccccc1O | TGI | > 100 µM
COC(=O)COc1ccc(/C=C2/N=C(c3ccccc3)N(c3c(C)n(C)n(-c4ccccc4)c3=O)C2=O)cc1 | TGI | 63.5 µM
